Assay: Headspace volatilization of secondary metabolites by GCMS
Assay type: physicochemical
Conditions: Commercial rosemary oil sample one; share of total peak area
Protocol: In this study, a liquid fumigant pesticide formulation was prepared as follows: • (1) Base formula: rosemary oil (5 ml) • (2) Enhancement formula: rosemary oil high quality (0.5 ml); clove oil (0.05 ml); peppermint oil (0.075 ml) • (3) Carrier solvent: isopropyl alcohol (6 ml); isopropyl myristate (0.06 ml). Blending: • 3. […]
Listed here are compounds together with their documented % of secondary metabolite in headspace.
Express the result in % but write the number alone.

// known answers, use as guide
[[record]]
compound = "CC1=CCC2C(C1)C2(C)C (stereo not shown)"
assay_metric = "% of secondary metabolite in headspace"
number = 1.88

[[record]]
compound = "CC12CCC(CC1=O)C2(C)C (stereo not shown)"
assay_metric = "% of secondary metabolite in headspace"
number = 11.89


Q: Requested read-out: % of secondary metabolite in headspace. Entry: CC1=CCC2CC1C2(C)C (stereo not shown)
Ans: 6.53

Q: Recorded % of secondary metabolite in headspace for C=C1C2CCC(C2)C1(C)C (stereo not shown) , please?
Ans: 4.26

###

Assay: Headspace volatilization of secondary metabolites by GCMS
Type: physicochemical
Conditions: Commercial rosemary oil sample three; share of total peak area
assay-metric: % of secondary metabolite in headspace (%)
Give your result in % as a bare value.

Illustrative cases are given below, each with its answer.
[[record]]
compound = "CC12CCC(CC1=O)C2(C)C (centres unmarked)"
assay_metric = "% of secondary metabolite in headspace"
number = 18.60

[[record]]
compound = "CC12CCC(CC1)C(C)(C)O2"
assay_metric = "% of secondary metabolite in headspace"
number = 36.95

[[record]]
compound = "CC(=O)OC1CC2CCC1(C)C2(C)C (centres unmarked) [Bornyl Acetate]"
assay_metric = "% of secondary metabolite in headspace"
number = 2.54


Q: Using the record for Cc1ccc(C(C)C)cc1 , report its % of secondary metabolite in headspace.
Ans: 2.01

Q: Could you share which % of secondary metabolite in headspace value was measured for CC1=CCC2CC1C2(C)C (centres unmarked) ?
Ans: 14.73

Q: Please look up its % of secondary metabolite in headspace: C=C1CCC2CC1C2(C)C (centres unmarked)
Ans: 6.22

Q: Which % of secondary metabolite in headspace is reported for this compound? CC1(C)C2CCC1(C)C(O)C2 (centres unmarked)
Ans: 1.68

Q: Quick one: % of secondary metabolite in headspace of CC1=CC[C@@H](C(C)(C)O)CC1 ?
Ans: 2.48

###

Assay: Headspace volatilization of secondary metabolites by GCMS
Format: physicochemical
Conditions: Commercial rosemary oil sample one; share of total peak area
assay-metric: % of secondary metabolite in headspace (%)
Please state the figure in %; there is no need to write the unit.

[[record]]
compound = "C=C1CCC2CC1C2(C)C (stereo not drawn)"
number = 8.00

[[record]]
compound = "CC1(C)[C@@H]2CC[C@@]1(C)[C@H](O)C2"
number = 1.74

[[record]]
compound = "CC(=O)OC1CC2CCC1(C)C2(C)C (stereo not drawn) [Bornyl Acetate]"
number = 2.70

[[record]]
compound = "Cc1ccc(C(C)C)cc1"
number = 1.89

[[record]]
compound = "CC12CCC(CC1)C(C)(C)O2"
number = 57.05


Please examine the following record next.
Q: GET /values?readout=% of secondary metabolite in headspace&item= CC1(C)C2CCC1(C)C(O)C2 (stereo not drawn)
Ans: 4.06
